- System: 966289-007-R4-J1-PDC complex spheroid viability
- ASSAY PROCEDURE: Anticancer human tumor 966289-007-R4-J1-PDC patient-derived pancreatic adenocarcinoma cell line growth inhibition [RAS]
- ASSAY SETUP: second compound 0.003 µM; first compound 0.316 µM; hits give low values
Measured viability, T/C values are reported for all entries that follow.
READOUT LABEL: viability, T/C

INSERT INTO assay_data (compound, value_observed) VALUES
  ('CC(=O)OC12COC1CC(O)C1(C)C(=O)C(O)C3=C(C)C(OC(=O)C(O)C(NC(=O)OC(C)(C)C)c4ccccc4)CC(O)(C(OC(=O)c4ccccc4)C21)C3(C)C (configuration not stated) + CCn1c(-c2cc(N3CCN(C)CC3)cnc2C(C)OC)c2c3cc(ccc31)-c1csc(n1)CC(NC(=O)C1CC1C)C(=O)N1CCCC(N1)C(=O)OCC(C)(C)C2', '10.9%'),
  ('C=CC(=O)Nc1cc(Nc2nccc(-c3cn(C)c4ccccc34)n2)c(OC)cc1N(C)CCN(C)C + CCn1c(-c2cc(N3CCN(C)CC3)cnc2C(C)OC)c2c3cc(ccc31)-c1csc(n1)CC(NC(=O)C1CC1C)C(=O)N1CCCC(N1)C(=O)OCC(C)(C)C2', '110%');

----------
- Tested on: 966289-007-R4-J1-PDC complex spheroid viability
- ASSAY PROCEDURE: Anticancer human tumor 966289-007-R4-J1-PDC cell line growth inhibition [RAS];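 note: spheroids exposed to agents for one week before readout; percent viability relative to DMSO vehicle control wells as 100%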
- ASSAY SETUP: second compound 0.3 µM; first compound 0.1 µM; hits give low values
- Excerpt: RAS pathway inhibitors in Combinations in Complex Spheroids A high-throughput screen of multi-cell type tumor spheroids was designed to identify active combinations of RAS pathway inhibitors and targeted small molecules. Complex spheroids include a stromal component modeled by human endothelial cells (HUVEC) and fibroblasts modeled by human mesenchymal stem cells (MSCs). […] Compounds. […] If the clinical Cmax for an agent had not been determined, the highest concentration tested was 10 microM. […]
Measured viability, T/C values are reported for all entries that follow.
READOUT LABEL: viability, T/C

INSERT INTO assay_data (compound, subject_of_test, value_observed) VALUES
  ('CC(Nc1ccc2c(c1)OCCn1cc(N3C(=O)OCC3C(F)F)nc1-2)C(N)=O (configuration not stated) + CCn1c(-c2cccnc2C(C)OC)c2c3cc(ccc31)N1CCOC(CC(NC(=O)C(C(C)C)N(C)C(=O)C3(F)CCN(C(=O)C#CC(C)(C)N(C)C)CC3)C(=O)N3CCCC(N3)C(=O)OCC(C)(C)C2)C1', '966289-007-R4-J1-PDC complex spheroid viability', '94.8%'),
  ('CC(C)NCC(C(=O)N1CCN(c2ncnc3c2C(C)CC3O)CC1)c1ccc(Cl)cc1 (configuration not stated) + CCn1c(-c2cccnc2C(C)OC)c2c3cc(ccc31)N1CCOC(CC(NC(=O)C(C(C)C)N(C)C(=O)C3(F)CCN(C(=O)C#CC(C)(C)N(C)C)CC3)C(=O)N3CCCC(N3)C(=O)OCC(C)(C)C2)C1', '966289-007-R4-J1-PDC complex spheroid viability', '97%');

----------
- Test system: 966289-007-R4-J1-PDC complex spheroid viability
- ASSAY PROCEDURE: Anticancer human tumor 966289-007-R4-J1-PDC cell line growth inhibition [RAS]; active means viability on the fitted dose curve at most 10% of control; inactive means the rest;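 note: spheroids exposed to agents for one week before readout; percent viability relative to DMSO vehicle control wells as 100%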
- ASSAY SETUP: second compound 0.00949 µM; first compound 10 µM
- Excerpt: RAS pathway inhibitors in Combinations in Complex Spheroids A high-throughput screen of multi-cell type tumor spheroids was designed to identify active combinations of RAS pathway inhibitors and targeted small molecules. Complex spheroids include a stromal component modeled by human endothelial cells (HUVEC) and fibroblasts modeled by human mesenchymal stem cells (MSCs). […] Compounds. […] If the clinical Cmax for an agent had not been determined, the highest concentration tested was 10 microM. […]
Outcomes: active, inactive

INSERT INTO results (compound, subject_of_test, group) VALUES
  ('CC(=O)OC12COC1CC(O)C1(C)C(=O)C(O)C3=C(C)C(OC(=O)C(O)C(NC(=O)OC(C)(C)C)c4ccccc4)CC(O)(C(OC(=O)c4ccccc4)C21)C3(C)C (centres undefined) + CCn1c(-c2cc(N3CCN(C)CC3)cnc2C(C)OC)c2c3cc(ccc31)-c1csc(n1)CC(NC(=O)C1CC1C)C(=O)N1CCCC(N1)C(=O)OCC(C)(C)C2', '966289-007-R4-J1-PDC complex spheroid viability', 'inactive'),
  ('CCC(CC)c1cc(NC2CCC(N)C2)n2nccc2n1 (centres undefined) + CCn1c(-c2cc(N3CCN(C)CC3)cnc2C(C)OC)c2c3cc(ccc31)-c1csc(n1)CC(NC(=O)C1CC1C)C(=O)N1CCCC(N1)C(=O)OCC(C)(C)C2', '966289-007-R4-J1-PDC complex spheroid viability', 'active'),
  ('CC1(O)CCCC1n1c(=O)c(C(F)F)cc2cnc(NC3CCN(S(C)(=O)=O)CC3)nc21 (centres undefined) + CCn1c(-c2cc(N3CCN(C)CC3)cnc2C(C)OC)c2c3cc(ccc31)-c1csc(n1)CC(NC(=O)C1CC1C)C(=O)N1CCCC(N1)C(=O)OCC(C)(C)C2', '966289-007-R4-J1-PDC complex spheroid viability', 'inactive'),
  ('NC1c2ccccc2OC12CCN(c1cnc3c(N4CCCc5ncccc54)n[nH]c3n1)CC2 (centres undefined) + CCn1c(-c2cccnc2C(C)OC)c2c3cc(ccc31)N1CCOC(CC(NC(=O)C(C(C)C)N(C)C(=O)C3(F)CCN(C(=O)C#CC(C)(C)N(C)C)CC3)C(=O)N3CCCC(N3)C(=O)OCC(C)(C)C2)C1', '966289-007-R4-J1-PDC complex spheroid viability', 'inactive');
